GI50 for assorted molecules
- Test system: M14
- protocol: NCI tumour cell line growth inhibition, 48 h
The source made the active and inactive calls. Rule as the data show it: active = GI50 up to about 1.1 µM and inactive = higher.
parameter_measured: GI50

> print(dat)
                              sample.smiles  target.or.test.system               result
1  COc1ccc(S(=O)(=O)N/N=C/CN2C(=O)c3ccccc3C2=O)cc1                    M14  > 100 µM (inactive)
2  C=CCn1c(=S)sc2c(C(=O)OCC)c3c(C)cc(C)cn3c2c1=O                    M14  > 100 µM (inactive)
3                            ClCC1(CCl)COC1                    M14  > 100 µM (inactive)
4                Cc1c2ccncc2cc2c1sc1ccncc12                    M14   4.53 µM (inactive)
5          COc1ccccc1-c1cc(=O)c2ccccc2[nH]1                    M14   99.8 µM (inactive)
6  COc1cc2c3c(n(C)c(=O)c2cc1OC)-c1cc2c(cc1C3=O)OCO2                    M14   9.91 µM (inactive)

###

- Test system: RXF 393
- protocol: NCI tumour cell line growth inhibition, 48 h
Activity calls are given as the source filed them. Rule as the data show it: active = GI50 up to about 1.1 µM and inactive = higher.
Classes used: 1.0 (active), 0.0 (inactive)

molecule	cat
CC(C)(C)n1c(=O)[nH]c(=O)n1C(C)(C)C	0.0
COC(=O)C1(C)C=C(Nc2ccccc2)C(=O)N1c1ccccc1 (stereo not given)	0.0
CCN(CC)CCOCCOCC1(c2ccc(Cl)c(Cl)c2)CCCCC1	0.0
COc1ccccc1/C=C/C1=NN(c2cccc(S(=O)(=O)O)c2)C2(C1)C(Cl)C(=O)N2c1nc2ccccc2s1 (stereo not given)	0.0
COc1nc(SC)nc2c1cnn2C1OC(C(O)CO)C(OC)C1O (stereo not given)	0.0
N#CCc1n[nH]c2nc(SCc3ccccc3)nc(N3CCCCC3)c12	0.0
CCc1cccc(C(C)CC)c1NC(=O)C(=O)C(CC(=O)Nc1ccc(Cl)c(Cl)c1)C(=O)OC (stereo not given)	0.0
COc1ccc(N2C(=O)C3c4[nH]c5ccccc5c4C4C(C)CCCC4C3C2=O)cc1 (stereo not given)	0.0
Cc1ccc(C(O)c2cnc(C)n2Cc2ccccc2)cc1 (stereo not given)	0.0
CN(C)C(=S)/N=c1\ssc(=S)n1C	0.0
O=C1C[C@@H]2C(COC(=O)c3ccccc3)N(OCc3ccccc3)C[C@@H]2O1 (stereo not given in full)	0.0
C[N+](C)([O-])CCOc1cc2c(c3ccccc13)-c1ccccc1C2=O	0.0
Cc1csc2c(=O)n(COCc3ccccc3)c(=O)[nH]c12	0.0
C/C(=C\CO)CC/C=C(\C)CNc1ccccc1	0.0
CCCCCCCCCCCCC(SCCNC(=O)CCNC(=O)C(O)C(C)(C)COP(=O)(O)OP(=O)(O)OCC1OC(n2cnc3c(N)ncnc32)C(O)C1OP(=O)(O)O)C(=O)NCC(N)=O (stereo not given)	0.0
COc1cc2cc(C(=O)N3C[C@H](CCl)c4c3cc(O)c3ccccc43)[nH]c2c(OC)c1OC	1.0
CC(=O)OCC1OC(OC2CC3C(C)(C)C(OC(C)=O)CC[C@]3(C)C3CCC45CC4(CC[C@H]5C(C)CC(O)C4OC4(C)C)[C@]23C)C(O)C(O)C1O (stereo not given in full)	0.0
ClCC1(CCl)COC1	0.0
COC(OC)[C@@H](C)[C@H](O)[C@](C)(O)C1OC(C)(C)OC(C(C)C=C(C)C)C1C (stereo not given in full)	0.0
O=C(N/C(=C\c1ccc(Br)cc1)c1nc2ccccc2s1)c1ccccc1	0.0
